Tested on: SK-MEL-5
Run description: NCI tumour cell line growth inhibition, 48 h
Active and inactive are the calls of the source. Cut-off read from the data, not from the text of the source: active = GI50 up to about 1.1 µM and inactive = higher.
Assign GI50 to each entry below.

Answer with GI50 of COC(=O)c1ccccc1C1CN=NC12Cc1ccccc1C2=O (stereo not drawn) measured for SK-MEL-5.
42.4 µM (inactive)

Would you please give the reported GI50 of "COc1cc(/C=C2\N=C(c3ccccc3)N(c3nc4cc(C)c(C)cc4s3)C2=O)ccc1O" with SK-MEL-5?
31.3 µM (inactive)

Tell me its GI50 on SK-MEL-5: CC(C)=CC1C(C(=O)OCc2cc3c(cc2Cl)OCO3)C1(C)C (stereo not drawn)
16.7 µM (inactive)

---

Test system: SNB-19
Run description: NCI tumour cell line growth inhibition, 48 h
The source made the active and inactive calls. Cut-off read from the data, not from the text of the source: active = GI50 up to about 1.1 µM and inactive = higher. Peptide text beside a SMILES is read from it. * marks the point of attachment. Boc = CC(C)(C)OC(=O)*; OSu = O=C1CCC(=O)N1O*; OtBu = CC(C)(C)O*
Response enum: active, inactive

Please let me know the test result on file for "CC(C)C(=O)Nc1nc2[nH]cnc2c(=O)[nH]1" .
inactive

Lab log entry: "O=C(CCc1ccccc1)n1cccc1CO" — outcome as called in the assay?
inactive

Which outcome was assigned to "O=C(O)c1cc(-c2ccc3c(O)ccc(O)c3c2)ccc1O" in this test?
inactive

// return assay outcome for "O=S(=O)(O)c1cccc2cccc(/N=N/c3c(O)ccc4ccccc34)c12"
inactive

Hi, do you know how CC(C)C1OC(=O)C(Cc2ccccc2)N(C)C(=O)C(C(C)C)OC(=O)C(Cc2ccccc2)N(C)C(=O)C(C(C)C)OC(=O)C(Cc2ccccc2)N(C)C1=O (stereo not given) came out in this test?
active

What was the test verdict on "CN1CCC(=O)/C(=C/c2ccccc2)C1" ?
inactive

Hi, do you know how "O=C(O)c1cc2ccccc2c(/N=N/c2ccc(S(=O)(=O)O)cc2)c1O" came out in this test?
active

What did the test return for "CCCCSN1C(=O)c2ccccc2C1=S" ?
inactive

Dear colleague, could you share the recorded outcome for COc1cc(C2SC(C)C(=O)N2c2ccc(-c3csc(NS(=O)(=O)c4ccc(Cl)c(OC)c4)n3)cc2)ccc1O (stereo not given) when you have a moment?
inactive

// return assay outcome for "c1ccc2c(c1)nc1n2CCNC1"
inactive

Identify the outcome logged in this assay for the compound shown: C=C1CC23CCC4C(C)(C(=O)O)CCCC4(C)C2CCC1C3 (stereo not given)
inactive

Test call, this compound: "Nc1nc2[nH]cnc2c(=S)[nH]1"
inactive

How was NCCCCC(NC(=O)C(N)Cc1ccc(O)cc1)C(=O)NC(Cc1ccc(O)cc1)C(=O)NC(CCCCN)C(=O)ON1C(=O)CCC1=O (stereo not given) (H-YKYK-OSu; configuration not given here) classified in this test?
inactive

Which outcome did this test record for the compound "N#CCN1CCN(CC#N)CCN(CC#N)CCN(CC#N)CC1" ?
inactive

Identify the outcome logged in this assay for the compound shown: C=CC(OC(C)=O)c1ccc(OC(=O)C(C)C)c(OC)c1 (stereo not given)
inactive

Please let me know the test result on file for "CCCCOc1c(C(=O)O)cc(Br)cc1C(=O)O" .
inactive

Can you look up the reported call for "C[C@]12[C@@H]3CC[C@H]1[C@@H](OC(=O)Nc1cc([N+](=O)[O-])cc([N+](=O)[O-])c1)C(=O)N2CC3" for me?
inactive

Recorded test outcome, item CC(C)(C)OC(=O)CC(NC(=O)OC(C)(C)C)C(=O)NC(Cc1ccccc1)C(N)=O (stereo not given) (Boc-Asp(OtBu)-Phe-NH2; configuration not given here)
inactive

Please share the test call associated with "C=C1C(=O)O[C@H]2[C@H]([C@H](C)CCCC(C)=O)O[C@H]([C@@]3(C)CCC(=O)O3)C[C@@H]12" .
inactive

Hey, what did the test say about "CCN(C(=O)N[C@@H](Cc1ccccc1)C(=O)N[C@@H](CC(C)C)C(=O)NC)c1ccccc1" ?
inactive

So what was the verdict on "COC(=O)[C@H]1[C@@H](C(C)C)O[C@@H](C(C)C)O[C@H]1C(F)(F)F" in this test?
inactive

GET /call?item= "COc1cc(/C=C/C(=O)Oc2ccccc2)ccc1C(=O)O/C=C/c1ccccc1" returns the recorded outcome of this test.
inactive

I would be grateful if you could indicate the recorded call for CC(=O)OC1CCC2(C)C(CCC3C2CC(=O)C2(C)C3CC(N3CC3)C2C(C)=O)C1 (stereo not given) .
inactive

What did this assay record as the result for COC1CC(N)C(O)C(C)O1 (stereo not given) ?
inactive

Dear colleague, could you share the recorded outcome for "CCN(CC)CCOC(=O)/C(=C/c1ccc(OC)cc1)c1cc(OC)c(OC)c(OC)c1" when you have a moment?
inactive

Recorded test outcome, item "CC(C)Sc1nncc(/C(N)=N/O)n1"
inactive

Per the records of this test, what outcome belongs to "O=C1C=C(NCC(c2ccccc2)c2ccccc2)C(=O)c2ncccc21" ?
inactive

Field: outcome | Entry: "CCN(CC)CCOc1ccc(C(=C2CCCCC2)c2ccc(OCCN(CC)CC)cc2)cc1"
inactive

Called result for "C/C(=N/NC(=S)NCCc1ccccn1)c1cnccn1"
inactive

Status in this test for "CCN(CC)CCNc1n[n+]([O-])c2cc([N+](=O)[O-])ccc2[n+]1[O-]" ?
inactive

Give the logged outcome of this assay for the following compound: "CC(=O)O[C@]1(C)OC(=O)[C@@H](C)N1[N+](=O)[O-]"
inactive

What did the test return for Cc1cn(C2OC(CO[Si](C)(C)C(C)(C)C)/C(=C\C#N)C2O[Si](C)(C)C(C)(C)C)c(=O)[nH]c1=O (stereo not given) ?
inactive

Please indicate how the test categorized "COc1ccc(-c2cc(O)c3c(C)ccnc3n2)cc1" .
inactive

Identify the outcome logged in this assay for the compound shown: CC(=O)OC12c3ccccc3-c3ccccc3C1C(C(=O)O)C2C(=O)O (stereo not given)
inactive

Hey, what did the test say about "O=[N+]([O-])/C(C(Cl)=C(Cl)Cl)=C(/Br)SCc1ccccc1" ?
inactive

Call for entry COc1cccc(/C=C2\CCC(CN(C)C)C2=O)c1 (stereo not given) :
inactive

Test call, this compound: "O=C1O/C(=C(/Br)c2ccc(Cl)c(Cl)c2)c2ccccc21"
inactive

Returns: the outcome recorded for "CCOC(=O)Cc1cc(OC)c(OC)cc1/C(Cl)=C(\C=O)c1ccc(OC)c(OC)c1" in this assay.
inactive

What did the test return for OC(c1cc2ccccc2[nH]1)C(O)(c1cc2ccccc2[nH]1)c1cc2ccccc2[nH]1 (stereo not given) ?
inactive

Any idea what this test logged for "C/C(CCn1[nH]c(=O)ccc1=O)=N\Nc1ccc([N+](=O)[O-])cc1[N+](=O)[O-]" ?
inactive
